Tested on: SNU398
Assay: MTT survival assay, SNU398
Type: cell-based, human
Details: Homo sapiens, SNU-398; SNU398 cells, MTT, incubation 4-7 days
Measure Name: IC50

Consider the compound "CC(C)N=c1cc2n(-c3ccc(Cl)cc3)c3ccccc3nc-2cc1Nc1ccc(Cl)cc1" and give its measured IC50.
1 to 2 µM

* * *

Test system: Hep3B
Test: MTT survival assay, Hep3B
Assay type: cell-based, human
Settings: Homo sapiens; Hep3B cells, MTT, incubation 4-7 days
Measure Name: IC50

For the compound "CC(C)N=c1cc2n(-c3ccc(Cl)cc3)c3ccccc3nc-2cc1Nc1ccc(Cl)cc1" , what IC50 is on record?
1 to 2 µM
